Each entry below lists one item and its recorded pIC50 value.
- system-name: HIV-1 RT-associated RNase H (Human immunodeficiency virus type 1 group M subtype B, UniProt P03366)
- Construct: Human immunodeficiency virus type 1 heterodimeric RT was expressed and purified
- procedure-details: HIV-1 RT-associated RNase H assay (fluorescent RNA/DNA hybrid)
pIC50: −log10 of the molar value.
parameter-measured: pIC50

| input-smiles | parameter-measured | bound-operator | recorded-value |
| --- | --- | --- | --- |
| O=C(N/N=C/c1ccccc1O)c1cc(O)c(O)c(O)c1 | pIC50 | = | 5.64 |
| O=C(N/N=C/c1ccccn1)c1cc(O)c(O)c(O)c1 | pIC50 | = | 5.49 |
| O=C(N/N=C/c1cc(O)c(O)c(O)c1)c1cc(O)c(O)c(O)c1 | pIC50 | = | 6.74 |
| O=C(N/N=C/c1c(O)cc(O)cc1O)c1ccccc1O | pIC50 | = | 5.02 |
| O=C(N/N=C/c1cccc(O)c1O)c1ccccc1 | pIC50 | < | 4.00 |
